- Assay Remarks: pH of aqueous solutions of the salts
- Applied Conditions: aqueous solution, concentration approximately 10^-3 M
Measurement Name: pH

INSERT INTO results (molecule, reported_measurement) VALUES
  ('CC1c2cccc(O)c2C(O)=C2C(=O)C3(O)C(O)=C(C(N)=O)C(=O)C(N(C)C)C3C(O)C21.O=C(O)C=CC(=O)O (stereo not shown) [Doxycycline Maleate]', 3.3),
  ('C[C@H]1c2cccc(O)c2C(O)=C2C(=O)[C@]3(O)C(O)=C(C(N)=O)C(=O)[C@@H](N(C)C)[C@@H]3[C@@H](O)[C@@H]21.O=C(O)C(=O)O [Doxycycline Oxalate]', 3.2),
  ('CN(C)c1ccc(O)c2c1C[C@H]1C[C@H]3[C@H](N(C)C)C(O)=C(C(N)=O)C(=O)[C@@]3(O)C(O)=C1C2=O [Minocycline Base, reference compound]', 6.8),
  ('CN(C)C1C(O)=C(C(N)=O)C(=O)C2(O)C(O)=C3C(=O)c4c(O)cccc4C(C)(O)C3CC12.O=C(O)C(=O)O (stereo not shown) [Tetracycline Oxalate]', 3.2);

###

- Assay Remarks: Solubility in buffers at pH 1.0, 1.2, 4.5, 6.8 and 7.5
- Assay type: physicochemical
- Applied Conditions: buffer pH 1.0, KCl 0.2 M / HCl 0.2 M
Measurement Name: Solubility pH = 1.0 (volume of solvent required for dissolution per gram of solute)

INSERT INTO assay_data (compound, reported_measurement) VALUES
  ('CCO.C[C@H]1c2cccc(O)c2C(=O)C2=C(O)[C@]3(O)C(=O)C(C(N)=O)=C(O)[C@@H](N(C)C)[C@@H]3[C@@H](O)[C@@H]21.C[C@H]1c2cccc(O)c2C(=O)C2=C(O)[C@]3(O)C(=O)C(C(N)=O)=C(O)[C@@H](N(C)C)[C@@H]3[C@@H](O)[C@@H]21.Cl.Cl.O [Doxycycline Hyclate, reference compound]', '16 ml/g'),
  ('CC1c2cccc(O)c2C(O)=C2C(=O)C3(O)C(O)=C(C(N)=O)C(=O)C(N(C)C)C3C(O)C21.O=C(O)C=CC(=O)O (stereo not shown) [Doxycycline Maleate]', '13 ml/g'),
  ('C[C@H]1c2cccc(O)c2C(=O)C2=C(O)[C@]3(O)C(=O)C(C(N)=O)=C(O)[C@@H](N(C)C)[C@@H]3[C@@H](O)[C@@H]21 [Doxycycline Monohydrate, reference compound]', '19 ml/g'),
  ('C[C@H]1c2cccc(O)c2C(O)=C2C(=O)[C@]3(O)C(O)=C(C(N)=O)C(=O)[C@@H](N(C)C)[C@@H]3[C@@H](O)[C@@H]21.O=C(O)C(=O)O [Doxycycline Oxalate]', '500 ml/g');

###

This section presents compounds with their documented Munsell Classification values.
- Assay Remarks: Color classification according to the Munsell color system
- Assay type: physicochemical
- Applied Conditions: Munsell color system
- Excerpt: The table below presents the color classification of the doxycycline salts according to the Munsell color system.
Measurement Name: Munsell Classification (Y/9/4 NN)

INSERT INTO assay_data (compound, reported_measurement) VALUES
  ('CN(C)[C@@H]1C(O)=C(C(N)=O)C(=O)[C@@]2(O)C(O)=C3C(=O)c4c(O)cccc4[C@@](C)(O)[C@H]3C[C@@H]12', 5),
  ('C[C@H]1c2cccc(O)c2C(O)=C2C(=O)[C@]3(O)C(O)=C(C(N)=O)C(=O)[C@@H](N(C)C)[C@@H]3[C@@H](O)[C@@H]21.O=C(O)C(=O)O [Doxycycline Oxalate]', 5);

Where do the numbers come from? From patent US10543298B2.
